Value source: ChEMBL document CHEMBL5029194

# procedure_details: Half life in Sprague-Dawley rat at 10 mg/kg, po measured up to 24 hrs by LC-MS-MS analysis
# Assay type: ADME, organism-based
# test_context: in vivo
quantity_name: half-life (h)

Identify half-life associated with the molecule O=C(NS(=O)(=O)c1cc(Cl)c(Cl)s1)OC/C=C1\CCCc2cnn(Cc3ccc(Cl)cc3Cl)c21 2.3

Determine from records and report half-life for O=C(NC/C=C1\CCCc2cnn(Cc3ccc(Cl)cc3Cl)c21)NS(=O)(=O)c1cc(Cl)c(Cl)s1 2.8

Specify measured half-life for O=C(NS(=O)(=O)c1ccc(Cl)cc1)OC/C=C1\CCCc2cnn(Cc3ccc(Cl)cc3Cl)c21 . 3.6

Answer with the recorded half-life for the molecule listed here: Cc1cc(S(=O)(=O)NC(=O)NC/C(F)=C2\CCCc3cnn(Cc4ccc(Cl)cc4Cl)c32)sc1Cl 3.2
